Target: androgen receptor (AR-LBD) (Rattus norvegicus)
Construct: 5 μL of 2×AR-LBD/Fluoromone AL Red Complex contained in the kit; purchased Invitrogen
Sequence (P15207 651-882 limits assumed): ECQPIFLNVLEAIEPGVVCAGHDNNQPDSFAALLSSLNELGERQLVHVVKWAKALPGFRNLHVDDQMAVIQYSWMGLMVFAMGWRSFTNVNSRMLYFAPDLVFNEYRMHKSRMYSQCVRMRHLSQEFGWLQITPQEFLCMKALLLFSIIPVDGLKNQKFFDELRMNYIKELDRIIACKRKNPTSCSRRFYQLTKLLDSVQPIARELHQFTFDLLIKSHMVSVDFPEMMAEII
Test: Evaluation of androgen receptor affinity (PolarScreen Androgen Receptor Competitor Assay Kit, Red; fluorescence polarization)
Settings: 22° C. for 5 hours, relative to binding rate of 1 μM DHT, read-out: AR affinity (pEC50) (converted)
Reported Endpoint: EC50

compound="Cc1nc(CCN(Cc2ccccc2)c2nc(C(=O)NS(C)(=O)=O)c(C)s2)cs1 [Compound 706]" result="> 2000 nM"
compound="Cc1sc(N(CCC(F)(F)F)Cc2ccccc2)nc1C(=O)NS(C)(=O)=O [Compound 711]" result="> 2000 nM"
compound="Cc1sc(N(Cc2ccccc2)c2ccccc2CO)nc1C(=O)NS(C)(=O)=O [Compound 606]" result="> 2000 nM"

====

target: human androgen receptor (Homo sapiens); construct: expressed in transfected cells; host or cells: HEK293; experiment: Reporter assay of an androgen receptor responsive sequence (luciferase, transiently transfected HEK293 cells); assay type: cell-based; settings: 24 hours incubation, relative to activity of 100 nM DHT, read-out: AR transcriptive activity (pEC50) (converted)
Sequence (P10275 whole entry): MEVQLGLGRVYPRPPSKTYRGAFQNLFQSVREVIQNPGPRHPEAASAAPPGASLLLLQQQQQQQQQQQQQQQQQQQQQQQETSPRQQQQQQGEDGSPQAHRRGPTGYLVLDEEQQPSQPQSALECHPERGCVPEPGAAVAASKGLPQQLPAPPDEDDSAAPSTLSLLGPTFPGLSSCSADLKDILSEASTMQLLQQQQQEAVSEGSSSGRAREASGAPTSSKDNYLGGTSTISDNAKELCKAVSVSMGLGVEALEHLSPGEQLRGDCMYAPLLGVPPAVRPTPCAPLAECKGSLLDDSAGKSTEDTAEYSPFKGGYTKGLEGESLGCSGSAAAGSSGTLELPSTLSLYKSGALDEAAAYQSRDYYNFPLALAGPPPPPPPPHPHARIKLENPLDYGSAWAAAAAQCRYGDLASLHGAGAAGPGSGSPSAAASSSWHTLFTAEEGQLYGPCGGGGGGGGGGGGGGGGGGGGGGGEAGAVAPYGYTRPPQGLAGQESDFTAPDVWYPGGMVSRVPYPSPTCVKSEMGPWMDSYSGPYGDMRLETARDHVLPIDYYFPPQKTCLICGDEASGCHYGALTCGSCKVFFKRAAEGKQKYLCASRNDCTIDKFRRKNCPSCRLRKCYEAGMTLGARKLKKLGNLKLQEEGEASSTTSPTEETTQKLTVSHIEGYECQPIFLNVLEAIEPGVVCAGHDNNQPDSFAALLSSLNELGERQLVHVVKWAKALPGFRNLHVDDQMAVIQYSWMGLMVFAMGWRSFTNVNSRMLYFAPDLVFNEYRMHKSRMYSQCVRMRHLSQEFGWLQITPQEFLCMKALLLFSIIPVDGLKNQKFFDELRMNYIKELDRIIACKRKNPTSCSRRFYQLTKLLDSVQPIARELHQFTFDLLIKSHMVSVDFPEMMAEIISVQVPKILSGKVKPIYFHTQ
Reported EC50 by item:
Reported Endpoint: EC50 (µM)

molecule="CS(=O)(=O)NC(=O)c1nc(N(Cc2ccc(OC(F)F)cc2)c2ccc(C#N)cc2)oc1C1CC1 [Compound 648]" unit_annotation=µM relation=> measured_number=10
molecule="Cc1sc(N(CCc2ccc(C#N)cc2)Cc2ccc(OC(F)(F)F)cc2)nc1C(=O)NS(=O)(=O)C(F)(F)F [Compound 722]" unit_annotation=µM relation=> measured_number=10
molecule="Cc1oc(N(CCc2ccc(C#N)cc2)Cc2ccc(OC(F)F)cc2)nc1C(=O)NS(C)(=O)=O [Compound 553]" unit_annotation=µM relation== measured_number=0.316
molecule="Cc1sc(N(CCc2cccc(F)c2)Cc2ccccc2)nc1C(=O)NS(C)(=O)=O [Compound 685]" unit_annotation=µM relation== measured_number=0.316
